- Tested on: eIF2-GTP-Met-tRNAi ternary complex
- protocolNotes: Ternary complex assay (dual luciferase, firefly/renilla ratio) in stable KLN-tTA/pBISA-DL(ATF-4) cells; HTS and hit confirmation
- Type: cell-based, mouse
- conditionContext: anti-cancer agents at 20 μM, ternary complex assay
reportedMetric: Relative F-luc/R-luc Ratio (+/− SEM)

Problem: Report Relative F-luc/R-luc Ratio (+/− SEM) from eIF2-GTP-Met-tRNAi ternary complex testing of CO[C@@]12[C@H](COC(N)=O)C3=C(C(=O)C(C)=C(N)C3=O)N1C[C@@H]1N[C@@H]12
Result: 0.9 + 0.3

Problem: Answer briefly: Relative F-luc/R-luc Ratio (+/− SEM) recorded on eIF2-GTP-Met-tRNAi ternary complex for CCCCCCCCCC(=O)NC(CN1CCOCC1)C(O)c1ccccc1 (stereo not shown)
Result: 1.5 + 0.4

Problem: Please report Relative F-luc/R-luc Ratio (+/− SEM) with eIF2-GTP-Met-tRNAi ternary complex for item COc1cc([C@@H]2c3cc4c(cc3[C@@H](O[C@@H]3O[C@@H]5CO[C@@H](C)O[C@H]5[C@H](O)[C@H]3O)[C@H]3COC(=O)[C@H]23)OCO4)cc(OC)c1O [etoposite, reference compound] .
Result: 1 + 0.2
